TGT: Matrix metalloproteinase-14 (Homo sapiens, UniProt P50281)
ASSAY_ENDPOINT: Ki

Input line: Which measured Ki value corresponds to CC(C)c1nc2ccccc2n1Cc1ccc(C(=O)N[C@@H]2CN(C(=O)OC(C)(C)C)C[C@@H]2C(=O)NO)cc1 ?
Output line: > 5.29 µM

----------
EXPERIMENT: Clearance in Beagle dog at 2.0 mg/kg, iv
Format: ADME, organism-based, Canis lupus familiaris
Set-up: dose 2 mg/kg, route intravenous
COND: in vivo
ASSAY_ENDPOINT: clearance (mL/min/kg)
Answer in mL/min/kg, number only, no unit symbol.

Input line: Look up clearance for this molecule: O=C(N[C@@H]1CCOC[C@@H]1C(=O)NO)c1ccc(Cn2c(C(F)(F)F)nc3ccccc32)cc1
Output line: 10

----------
EXPERIMENT: Oral bioavailability in Beagle dog at 8.0 mg/kg, po
COND: in vivo
ASSAY_ENDPOINT: bioavailability (%)
Just the number in %, nothing appended.

Input line: Fill blank: measured bioavailability of the compound O=C(N[C@@H]1CCOC[C@@H]1C(=O)NO)c1ccc(Cn2c(C(F)(F)F)nc3ccccc32)cc1 is ____.
Output line: 99

----------
In what follows, each item is paired with its pKi for 72 kDa type IV collagenase (Homo sapiens).
pKi: −log10 of the molar value.

Input line: Recorded pKi of CC(C)c1nc2ccccc2n1Cc1ccc(C(=O)N[C@@H]2CCOC[C@@H]2C(=O)NO)cc1 , please.
Output line: < 5.48

Input line: Proceed to CC(C)c1nc2ccccc2n1Cc1ccc(C(=O)N[C@@H]2CCC[C@@H]2C(=O)NO)cc1
Output line: < 5.48

Input line: Then what about the compound C#CCN1C[C@H](C(=O)NO)[C@H](NC(=O)c2ccc(Cn3c(C(C)C)nc4ccccc43)cc2)C1 ?
Output line: < 5.48

Input line: Also, CC(F)(F)c1nc2ccccc2n1Cc1ccc(C(=O)N[C@@H]2CCOC[C@@H]2C(=O)NO)cc1 please.
Output line: < 5.48

Input line: Could you do the same for CC(C)(F)c1nc2ccccc2n1Cc1ccc(C(=O)N[C@@H]2C[C@@]3(CCCO3)C[C@@H]2C(=O)NO)cc1 , please?
Output line: < 5.48

Input line: Proceed to O=C(N[C@@H]1CCC[C@@H]1C(=O)NO)c1ccc(Cn2c(C3CC3)nc3ccccc32)cc1
Output line: < 5.48

Input line: Then what about the compound CSc1nc2ccccc2n1Cc1ccc([C@]2(N)CCN([C@H](CC(C)C)C(=O)NO)C2=O)cc1 ?
Output line: 6.52

Input line: Same question, CSc1nc2ccccc2n1Cc1ccc(C(=O)N[C@@H]2CNC[C@@H]2C(=O)NO)cc1 this time
Output line: < 5.67

Input line: Now consider CC(C)c1nc2ccccc2n1Cc1ccc(C(=O)N[C@@H]2CN(C(=O)OC(C)(C)C)C[C@@H]2C(=O)NO)cc1 .
Output line: < 5.67

Input line: Entry to check: O=C(N[C@@H]1C[C@@]2(CCCO2)C[C@@H]1C(=O)NO)c1ccc(Cn2c(C3CC3)nc3ccccc32)cc1
Output line: < 5.48

Input line: Entry to check: Cc1nc2ccccc2n1Cc1ccc(C(=O)N[C@@H]2CNC[C@@H]2C(=O)NO)cc1
Output line: < 5.67

----------
Tested on: Blood
EXPERIMENT: Reduction of LPS-induced TNFalpha in human whole blood
Type: functional, tissue-based
Threshold-based label: IC50 under 70 nM gives y, IC50 not under 70 nM gives n.

Input line: Determine whether this compound shows IC50 lower than 70 nM (ties excluded): CC(C)c1nc2ccccc2n1Cc1ccc(C(=O)N[C@@H]2CNC[C@@H]2C(=O)NO)cc1
Output line: y

Input line: Now this one: C#CCN1C[C@H](C(=O)NO)[C@H](NC(=O)c2ccc(Cn3c(C(C)C)nc4ccccc43)cc2)C1
Output line: n

Input line: Same lookup for O=C(N[C@@H]1CCC[C@@H]1C(=O)NO)c1ccc(Cn2c(C3CC3)nc3ccccc32)cc1 , please.
Output line: y

Input line: Here is the next compound: CC(C)(F)c1nc2ccccc2n1Cc1ccc(C(=O)N[C@@H]2C[C@@]3(CCCO3)C[C@@H]2C(=O)NO)cc1
Output line: n

Input line: Also O=C(N[C@@H]1CCOC[C@@H]1C(=O)NO)c1ccc(Cn2c(C(F)(F)F)nc3ccccc32)cc1 , if possible.
Output line: n
